Answer each item with its documented Inhibition Ratio (%).
tested on: 22Rv1 cells; assay: 22Rv1 cell growth inhibition test (SRB assay); format: cell-based, human; conditions: growth inhibition at 222 nM, 73 h

Problem: Entry under review: COc1cccc2c1C(=O)c1c(O)c3c(c(O)c1C2=O)CC(O)(C(=O)COC(=O)CCC(=O)NCCCN1CCOCC1)CC3OC1CC(n2cccc2)C(O)C(C)O1 (stereo not drawn) . Reported Inhibition Ratio (%)?
Result: 53.3%

Problem: Entry under review: COc1cccc2c1C(=O)c1c(O)c3c(c(O)c1C2=O)CC(O)(C(=O)COC(=O)CCC(=O)NCc1cccnc1)CC3OC1CC(n2cccc2)C(O)C(C)O1 (stereo not drawn) . Reported Inhibition Ratio (%)?
Result: 63.1%

Problem: Entry under review: COc1cccc2c1C(=O)c1c(O)c3c(c(O)c1C2=O)CC(O)(C(=O)COC(=O)CCC(=O)Nc1ccncc1)CC3OC1CC(n2cccc2)C(O)C(C)O1 (stereo not drawn) . Reported Inhibition Ratio (%)?
Result: 56.3%
